molecular target: α7 nAChRs (Mus musculus, UniProt P49582); settings: in vivo
Sequence (P49582 23-502): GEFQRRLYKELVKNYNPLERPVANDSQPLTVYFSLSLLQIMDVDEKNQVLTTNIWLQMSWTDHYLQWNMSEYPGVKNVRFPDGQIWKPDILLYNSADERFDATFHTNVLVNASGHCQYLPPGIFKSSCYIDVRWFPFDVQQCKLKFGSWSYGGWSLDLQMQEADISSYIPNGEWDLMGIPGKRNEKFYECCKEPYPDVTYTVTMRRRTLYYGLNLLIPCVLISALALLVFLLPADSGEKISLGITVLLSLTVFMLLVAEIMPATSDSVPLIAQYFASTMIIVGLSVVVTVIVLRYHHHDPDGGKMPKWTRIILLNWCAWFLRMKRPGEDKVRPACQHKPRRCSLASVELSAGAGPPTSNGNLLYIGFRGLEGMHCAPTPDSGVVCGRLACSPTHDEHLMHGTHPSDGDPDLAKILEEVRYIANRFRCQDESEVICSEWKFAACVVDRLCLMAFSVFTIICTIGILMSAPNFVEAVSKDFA
Field: % Injected dose/g tissue, Hippocampus. Provide a value for each of the molecules that follow.
Numbers only, in % Injected dose/g tissue.

Consider the worked cases shown below.
molecule="[11CH3]N1CC2CN(c3ccc(-c4ccccc4)nn3)CC2C1 (stereo not shown) [[^11C]A-582941]" measurement_type="% Injected dose/g tissue, Hippocampus" recorded_number=4.05
molecule="CN1CC2CN(c3ccc(-c4ccccc4)nn3)CC2C1 (stereo not shown) [A-582941]" measurement_type="% Injected dose/g tissue, Hippocampus" recorded_number=6.48
molecule="[11CH3]N1CC2CN(c3ccc4oc5ccccc5c(=O)c4c3)CC2C1 (stereo not shown) [[^11C]A-844606]" measurement_type="% Injected dose/g tissue, Hippocampus" recorded_number=4.46

In: Please supply the value of reported % Injected dose/g tissue, Hippocampus for the item CN1CC2CN(c3ccc4oc5ccccc5c(=O)c4c3)CC2C1 (stereo not shown) [A-844606]
Out: 4.20

Hello, the source for this data is paper PMC2813863, in case you need it.
